biological target: Potassium-transporting ATPase (Rattus norvegicus) (UniProt P09626+P18598); experiment: Inhibition of pentagastrin-stimulated gastric acid secretion at a single dose of 10 umol/kg.; assay type: functional; settings: Stomach
// Not satisfied strictly below 60% in inhibition; Satisfied otherwise

Some entries whose results are on file:
>>> qualitative_label("CCCC(=O)c1cnc2cc(OC)ccc2c1Nc1ccccc1C")
"Not satisfied"
>>> qualitative_label("CCCC(=O)c1cnc2c(C3OC3CO)cccc2c1Nc1ccccc1C (stereo in doubt; 29b)")
"Not satisfied"
>>> qualitative_label("CCCC(=O)c1cnc2c(NCCc3c[nH]cn3)cccc2c1Nc1ccccc1C")
"Not satisfied"
>>> qualitative_label("CCCC(=O)c1cnc2c(OCCCNc3ccccn3)cccc2c1Nc1c(C)cccc1C")
"Not satisfied"
>>> qualitative_label("CCCC(=O)c1cnc2c(COC(=O)NC)cccc2c1Nc1ccccc1C")
"Not satisfied"
>>> qualitative_label("CCCC(=O)c1cnc2c(OCCCN(C)C)cccc2c1Nc1ccc(F)cc1C")
"Not satisfied"
>>> qualitative_label("CCCC(=O)c1cnc2c(OCCCNC(C)=O)cccc2c1Nc1c(C)cccc1C")
"Satisfied"
>>> qualitative_label("COCCOc1cccc2c(Nc3ccc(F)cc3C)c(C(=O)C(C)C)cnc12")
"Not satisfied"

# next compound below
Asked: Say whether CCC(=O)c1cnc2c(Oc3ccccn3)cccc2c1Nc1c(C)cccc1C shows inhibition of 60% or more.
Given back: Satisfied

----------
tested on: Canis familiaris; assay: Mean percent peak inhibition of histamine-stimulated gastric acid secretion in the heidenhain pouch dog following a single dose of 4 umol/kg through oral administration.; format: functional; details: Canis lupus familiaris, Stomach
inhibition in vivo at 4 µmol/kg listing for selected molecules.
Give just the numeric value; % need not be written.

>>> measured_result("CCC(=O)c1cnc2c(OCCOC)cccc2c1Nc1ccc(F)cc1C")
94
>>> measured_result("CCCC(=O)c1cnc2c(OCCO)cccc2c1Nc1ccccc1C")
96
>>> measured_result("CCC(=O)c1cnc2c(CO)cccc2c1Nc1ccc(O)cc1C")
24
>>> measured_result("CCCC(=O)c1cnc2c(OC)cccc2c1Nc1ccc(OC(=O)CC)cc1C")
45
>>> measured_result("CCCC(=O)c1cnc2c(OC)cccc2c1Nc1ccccc1C")
83
>>> measured_result("CCCC(=O)c1cnc2c(OCCOCCOCCO)cccc2c1Nc1ccccc1C")
78

Asked: Consider the molecule shown here: CCCC(=O)c1cnc2c(Oc3cnccn3)cccc2c1Nc1ccccc1C What is its recorded inhibition in vivo at 4 µmol/kg?
Given back: 43

Asked: Consider the molecule shown here: CCCC(=O)c1cnc2c(OC)cccc2c1Nc1cccc(C)c1C What is its recorded inhibition in vivo at 4 µmol/kg?
Given back: 67

Asked: Consider the molecule shown here: CCC(=O)c1cnc2c(CO)cccc2c1Nc1ccccc1C What is its recorded inhibition in vivo at 4 µmol/kg?
Given back: 35

Asked: Consider the molecule shown here: CCCC(=O)c1cnc2c(OCCOC)cccc2c1Nc1ccc(F)cc1C What is its recorded inhibition in vivo at 4 µmol/kg?
Given back: 46

Asked: Consider the molecule shown here: CCC(=O)c1cnc2c(OCCO)cccc2c1Nc1ccccc1C What is its recorded inhibition in vivo at 4 µmol/kg?
Given back: 82

----------
biological target: Potassium-transporting ATPase (Sus scrofa) (UniProt P18434+P19156); test: Inhibition of K+ -stimulated gastric ATPase activity was measured using lyophilized gastric vesicles at pH 7; type: tissue-based; set-up: concentration or dose not given beside the values; conditions: Stomach; concentration not given here
// not fulfilled strictly below 40% in inhibition; fulfilled otherwise

Some entries whose results are on file:
>>> qualitative_label("CCCC(=O)c1cnc2c(OC)cccc2c1Nc1ccc(CO)cc1")
"not fulfilled"
>>> qualitative_label("CCCC(=O)c1cnc2c(C)cccc2c1Nc1ccccc1F")
"fulfilled"
>>> qualitative_label("CCCC(=O)c1cnc2c(C)cccc2c1Nc1cc(OC)ccc1OC")
"not fulfilled"

Asked: Say whether CCCC(=O)c1cnc2c(C)cccc2c1Nc1ccc(Cl)cc1C shows inhibition of 40% or more.
Given back: not fulfilled

Asked: Say whether CCCC(=O)c1cnc2c(OC)cccc2c1Nc1cc(F)c(O)c(F)c1 shows inhibition of 40% or more.
Given back: not fulfilled

Asked: Say whether CCCC(=O)c1cnc2c(C)cccc2c1Nc1ccc(Cl)cc1Cl shows inhibition of 40% or more.
Given back: not fulfilled

Asked: Say whether CCCC(=O)c1cnc2c(OC)cccc2c1Nc1cc(F)cc(F)c1 shows inhibition of 40% or more.
Given back: fulfilled

Asked: Say whether CCCC(=O)c1cnc2c(OC)cccc2c1Nc1ccc(O)c(Cl)c1 shows inhibition of 40% or more.
Given back: not fulfilled

Asked: Say whether CCCC(=O)c1cnc2c(OC)cccc2c1Nc1ccc(N2CCCC2)cc1C shows inhibition of 40% or more.
Given back: not fulfilled

Asked: Say whether CCCC(=O)c1cnc2c(C)cccc2c1Nc1cc(C)ccc1OC shows inhibition of 40% or more.
Given back: fulfilled

Asked: Say whether CCCC(=O)c1cnc2c(OC)cccc2c1Nc1c(C)ccc(O)c1C shows inhibition of 40% or more.
Given back: not fulfilled

Asked: Say whether CCCC(=O)c1cnc2c(OC)cccc2c1Nc1ccc(O)c(CN(C)C)c1 shows inhibition of 40% or more.
Given back: not fulfilled
